- experimentalProtocol: yeast display, Sf9 membrane polyspecificity reagent, FACS + sequencing; frameworks hold sequencing errors
measurementLabel: polyreactivity (PSR sort gate)

QVQLVESGGGLVQAGGSLRLSCAASGRIFSSYAMGWYRQAPWKERELVAAISGSGGRTYYADSVKGRFTISRDNAKNTVYLQMNSLKPEDTAVYYCNARRRSPYSTGVAYDYWGQGTQVTVSS
high polyreactivity
QVQLVESGGGLVQAGGSIRLSCAASGFTFSQYVMGWYRQAPGKERELVAAISYRGGSTYYADSVKGRFTSARDNAKNTVYLQMNSLQPEDTAVYYGAAVAYSWHNRYDYCGQGTQVTVSS
high polyreactivity

* * *

- experimentalProtocol: yeast display, Sf9 membrane polyspecificity reagent, FACS + sequencing; frameworks hold sequencing errors
measurementLabel: polyreactivity (PSR sort gate)

QVQLVESGGGLVQAGGSLRLSCAASGITFQRYAMGWYRQAPGKVRELVAAITRRGGSTYYADSVKGRFTISRDNAKNTVYLQMNSLKPEDTAVYYCAADLFFKARGYDYWGQGTQVTVSS
high polyreactivity
QDQLVESGGGLVQAGGSLRLSCRASGFTFTHYAMGWSRKAPGKERELVAAIDRSGDSTYYADSVKGRFTISRDNAKNTVYLQMNSLKPEDTAVYYSAADLFDSLIWVYWTYVARFDYWGQGTQVTVSS
low polyreactivity
QVLLQESGGLLQAGCSLRMSCAASGSISTALSMVWYRQAPGKERELVATISDGASTNYADSVKGRFTISRVNAKNTVYLQMNSLKPEDTEVYYCAAQSQYRPDHRYWGQGTQVTVSS
high polyreactivity
QVQLVESGGGLVQAGGSLRLSCAASGRIFPAYAMGWYRQAPGKERELVASIRRGGITYADSVKGRFTSSRDNAKNTVYLQMNSLKPEDTAVYYCNADKYGPSAYDYWGQGTQVTVSS
low polyreactivity
